- System: MS2 coat protein
- Test Method Notes: apparent KD of MS2 coat protein, switch ON state; designed switch direction (-1 OFF switch, 1 ON switch): 1; higher = weaker reporter binding
- Run Parameters: FMN input: 0 or 200 uM; Eterna round: R93 (includes R88 designs)
Dear colleague, classification is by apparent KD of MS2 coat protein, with ranges listed here: lower segment (below 20 nM), middle segment (20 nM to below 80 nM), upper segment (80 nM or more)

- Entry Sequence: "GAGGACGUAGGAUAGGAUAUGUGAAUAAUUACAUGAGGAUCACCCAUGUCCAUUUAUAUGGGAACAUAGAAGGGUUUUCGUUAUC [SameState2 Malc#40]"
  Tested System: "MS2 coat protein"
  Discrete Label: "upper segment"
- Entry Sequence: "GAGAAGAAGAGAGAGGAUAUCCAAAGGAAAACAUGAGGAUCACCCAUGUAAAAGGUAGGAAAUUGGGAGAAGGCUCAAAGGAGGG [salish99-ss2-031]"
  Tested System: "MS2 coat protein"
  Discrete Label: "middle segment"
- Entry Sequence: "CGAGUACAUGAGGAUCACCCAUGUUAUGAAUUGUCAGGAUAUGGGUAGAGGUGACAUGCGCCAGAAGGGACGUCUG [JR_SS001_Sub1005]"
  Tested System: "MS2 coat protein"
  Discrete Label: "upper segment"
- Entry Sequence: "CAUCAUGCGCCUAAGGAUAUGUCUCACAAGACAUGAGGAUCACCCAUGUAGAAUAAAUAAACGAUGCAGAAGGUGGAGCGCAUGA [Cexeri]"
  Tested System: "MS2 coat protein"
  Discrete Label: "middle segment"
- Entry Sequence: "AAAGACAUGGUGCAGGAUAUAUUAAUAGUCACAUGAGGAUCACCCAUGUUCAGAUAUCUGAACGAGUAGAAGGGCGAUGAAAAAA [SameState2 Malc#5]"
  Tested System: "MS2 coat protein"
  Discrete Label: "upper segment"
- Entry Sequence: "AGGAAACAUGAGGAUCACCCAUGUAAAAAAAUGGGAGGAUAUACUAGAAGAAACAAAAUAGUAGAAGGCCUAAAAA [75%, Ex sub1, 27]"
  Tested System: "MS2 coat protein"
  Discrete Label: "lower segment"
- Entry Sequence: "AACUACAUUAUGAAGGAUAUCCACAUCAAGACAUGAGGAUCACCCAUGUAUACUUAGAUCAUACAGGAGAAGGUCAAGGGUGAAU [JR_SS002_Sub1207]"
  Tested System: "MS2 coat protein"
  Discrete Label: "upper segment"
- Entry Sequence: "AGAAAUAAAUGAGAGGAUAUCCUAAAGAAAACAUGAGGAUCACCCAUGUAAAAGAAAAUAAAAUGGGAGAAGGCUCAUAAUAAAG [Starry Same State 2 (jandersonlee round 1 mod)]"
  Tested System: "MS2 coat protein"
  Discrete Label: "middle segment"
- Entry Sequence: "AGGAGACAUGAGGAUCACCCAUGUGAGAAGAGGCGAGGAUAUCGAAAGAAAGAAGAGAAACGAGAAGGCGCGAGAC [salish99-SS1-029]"
  Tested System: "MS2 coat protein"
  Discrete Label: "lower segment"
- Entry Sequence: "AUAAAUAAAAGAGAGGAUAUCCAAAAUAAAACAUGAGGAUCACCCAUGUAAAAUAAAAUAAAAUGGGAGAAGGCUCAAAAUAAAU [SS2 M 2]"
  Tested System: "MS2 coat protein"
  Discrete Label: "middle segment"
- Entry Sequence: "AAAAAACAUGAGGAUCACCCAUGUGAGAACAUGGGAGGAUAUACAAGGAUGAGAGUCAAGGUAGAAGGCCUAAGAA [Garnet 70]"
  Tested System: "MS2 coat protein"
  Discrete Label: "middle segment"
- Entry Sequence: "GAAAAACAUGAGGAUCACCCAUGUGAAAACUUGGGAGGAUAUACUAAGACGAAAGUCGAGGUAGAAGGCCUAAAAG [Same State 1.4i (Mat - Mod of Eli - )]"
  Tested System: "MS2 coat protein"
  Discrete Label: "middle segment"
- Entry Sequence: "CAUCAUGCGCCUAAGGAUAUGUCUCACAAGACAUGAGGAUCACCCAUGUAGAAUAAAUAAAUGAUGCAGAAGGUGGAGCGCAUAC [Beusesce]"
  Tested System: "MS2 coat protein"
  Discrete Label: "middle segment"
- Entry Sequence: "AAAAGACAUGAGGAUCACCCAUGUUAAGACGUAGGAGGAUAUGUCGUGAAAAAAGACUUGACAGAAGGCCUGUGUC [SS1 - 38]"
  Tested System: "MS2 coat protein"
  Discrete Label: "lower segment"

Origin of measurements: the supplement of paper PMC9170038
